Field: shrunken log2 fold change. Provide a value for each of the sequences that follow.
tested on: Escherichia coli TOP10; assay: shrunken log2 fold change of peptide-encoding DNA abundance (4.5 h post-induction vs induction); higher = less antimicrobial activity (less host growth inhibition); details: time post-induction: 4.5 h; library: site-saturation at positions 5, 18, 19, 20;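 further: peptides expressed intracellularly from a pBAD plasmid library in pooled LB shake-flask culture, induced with 0.3% L-arabinose, DNA abundance read by NGS, three biological replicates, DESeq2 with apeglm shrinkage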

Ask: Which shrunken log2 fold change is listed for RRIRERPPRLPRPRPRPWAFPRP ?
Result: -0.165

Ask: Which shrunken log2 fold change is listed for RRIRERPPRLPRPRPRPYDTPRP ?
Result: -0.00822

Ask: Which shrunken log2 fold change is listed for RRIRCRPPRLPRPRPRPCFIPRP ?
Result: -0.488

Ask: Which shrunken log2 fold change is listed for RRIRYRPPRLPRPRPRPLDMPRP ?
Result: -0.151

Ask: Which shrunken log2 fold change is listed for RRIRCRPPRLPRPRPRPDEVPRP ?
Result: 0.00585

Ask: Which shrunken log2 fold change is listed for RRIRFRPPRLPRPRPRPGNVPRP ?
Result: 0.0145

Ask: Which shrunken log2 fold change is listed for RRIRNRPPRLPRPRPRPHMRPRP ?
Result: -0.00174

Ask: Which shrunken log2 fold change is listed for RRIRVRPPRLPRPRPRPTVWPRP ?
Result: 0.408

Ask: Which shrunken log2 fold change is listed for RRIRSRPPRLPRPRPRPVQCPRP ?
Result: -0.102

Ask: Which shrunken log2 fold change is listed for RRIRYRPPRLPRPRPRPKKMPRP ?
Result: -0.374

Ask: Which shrunken log2 fold change is listed for RRIRERPPRLPRPRPRPTNKPRP ?
Result: -0.533

Ask: Which shrunken log2 fold change is listed for RRIRVRPPRLPRPRPRPRFLPRP ?
Result: -0.247

Ask: Which shrunken log2 fold change is listed for RRIRMRPPRLPRPRPRPQYCPRP ?
Result: -0.0737

Ask: Which shrunken log2 fold change is listed for RRIRVRPPRLPRPRPRPAAYPRP ?
Result: 0.00526

Ask: Which shrunken log2 fold change is listed for RRIRDRPPRLPRPRPRPGGRPRP ?
Result: 0.569

Ask: Which shrunken log2 fold change is listed for RRIRFRPPRLPRPRPRPEVFPRP ?
Result: 0.181

Ask: Which shrunken log2 fold change is listed for RRIRSRPPRLPRPRPRPRNQPRP ?
Result: 0.205

Ask: Which shrunken log2 fold change is listed for RRIRWRPPRLPRPRPRPGVIPRP ?
Result: 0.0325

Ask: Which shrunken log2 fold change is listed for RRIRTRPPRLPRPRPRPTSPPRP ?
Result: 0.119

Ask: Which shrunken log2 fold change is listed for RRIRLRPPRLPRPRPRPHWQPRP ?
Result: 0.0281

Ask: Which shrunken log2 fold change is listed for RRIRIRPPRLPRPRPRPCWVPRP ?
Result: -0.451

Ask: Which shrunken log2 fold change is listed for RRIRRRPPRLPRPRPRPYWTPRP ?
Result: 0.000827

Ask: Which shrunken log2 fold change is listed for RRIRYRPPRLPRPRPRPAVFPRP ?
Result: -0.0965

Ask: Which shrunken log2 fold change is listed for RRIRSRPPRLPRPRPRPPMFPRP ?
Result: 0.0179

Ask: Which shrunken log2 fold change is listed for RRIRHRPPRLPRPRPRPSYNPRP ?
Result: -0.86

Ask: Which shrunken log2 fold change is listed for RRIRVRPPRLPRPRPRPGSAPRP ?
Result: 0.179

Ask: Which shrunken log2 fold change is listed for RRIRTRPPRLPRPRPRPFQNPRP ?
Result: 0.0326

Ask: Which shrunken log2 fold change is listed for RRIRRRPPRLPRPRPRPKHCPRP ?
Result: 0.294

Ask: Which shrunken log2 fold change is listed for RRIRFRPPRLPRPRPRPYLQPRP ?
Result: -0.527

Ask: Which shrunken log2 fold change is listed for RRIRLRPPRLPRPRPRPIQCPRP ?
Result: -0.301

Ask: Which shrunken log2 fold change is listed for RRIRLRPPRLPRPRPRPSQKPRP ?
Result: 0.00285

Ask: Which shrunken log2 fold change is listed for RRIRNRPPRLPRPRPRPDSQPRP ?
Result: -0.0699

These entries and their values trace back to the supplement of paper PMC9112550.
